- Tested on: MCF7 cells
- measurementNotes: Global arginine methylation Western blot
- Type: cell-based
- experimentalParameters: two days (48 h)
metricName: global levels of arginine symmetric dimethylation (Rme2s)

>  <chemicalSmiles>
CC(C)Oc1ccc(-c2c[nH]cc2CN(C)CC(N)=O)cc1

>  <measuredValue>
did not change

$$$$
>  <chemicalSmiles>
CC(C)Oc1ccc(-c2c[nH]cc2C(=O)N(C)CCN)cc1

>  <measuredValue>
did not change

$$$$
>  <chemicalSmiles>
CC(C)Oc1ccc(-c2c[nH]cc2CN(C)CCO)cc1

>  <measuredValue>
did not change

$$$$

###

Target chain: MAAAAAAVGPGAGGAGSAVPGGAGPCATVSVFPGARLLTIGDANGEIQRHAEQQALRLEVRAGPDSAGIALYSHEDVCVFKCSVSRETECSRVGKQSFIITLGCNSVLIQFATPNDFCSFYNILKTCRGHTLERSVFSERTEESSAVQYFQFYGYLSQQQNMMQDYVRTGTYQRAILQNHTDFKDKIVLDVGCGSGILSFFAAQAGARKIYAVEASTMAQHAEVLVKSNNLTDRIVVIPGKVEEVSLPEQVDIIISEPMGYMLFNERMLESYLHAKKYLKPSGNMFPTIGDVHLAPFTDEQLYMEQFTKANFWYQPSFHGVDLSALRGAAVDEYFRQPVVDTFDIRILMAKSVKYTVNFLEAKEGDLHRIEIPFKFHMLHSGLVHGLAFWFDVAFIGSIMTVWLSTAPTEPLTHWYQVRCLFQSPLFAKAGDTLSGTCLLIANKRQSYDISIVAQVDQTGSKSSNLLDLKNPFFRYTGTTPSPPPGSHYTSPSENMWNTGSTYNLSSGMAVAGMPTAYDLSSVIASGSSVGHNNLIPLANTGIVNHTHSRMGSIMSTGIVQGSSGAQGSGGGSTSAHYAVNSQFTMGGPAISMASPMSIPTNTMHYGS
pIC50: −log10 of the molar value.
metricName: pIC50

Record excerpt, results attached:
>  <compound>
CC(C)Oc1ccc(-c2c[nH]cc2CN(C)CC(N)=O)cc1 [Compound 5]

>  <pIC50>
< 5.00

$$$$
>  <compound>
CC(C)Oc1ccc(-c2c[nH]cc2CN(C)CCO)cc1 [MS094]

>  <pIC50>
< 5.00

$$$$

Lab note: CC(C)Oc1ccc(-c2c[nH]cc2C(=O)N(C)CCN)cc1 [Compound 6] gave pIC50 of < 5.00
